# tested-target: α-chymotrypsin (Bos taurus, UniProt P00766)
# Construct: purchased Sigma Chem. Co. C-3142
# test-summary: Inhibition of α-chymotrypsin
# Format: biochemical
# cond: Table III; 10 uM; read-out: Chymotrypsin % I @ 10 uM
Square brackets hold non-standard residues; d marks the D form. Peptide text beside a SMILES is read from it. * marks the point of attachment. ξ: configuration not given here. ξαMeL = CC(C)CC(C)(N)C(=O)O; Bn = c1ccc(C*)cc1; Ms = CS(=O)(=O)*
Exercise: state measured inhibition at 10 µM for each of the compounds provided.
Write down the numeric answer in % and omit the unit.

query: Using known records, supply inhibition at 10 µM for CC(C)CC(C)(C=O)NC(=O)[C@@H](COCc1ccccc1)NS(C)(=O)=O (stereo partly shown) [Compound 110] (Ms-[dS](Bn)-[ξαMeL]-aldehyde)
result: 0

query: Please supply the value of reported inhibition at 10 µM for the item O=C[C@H](Cc1ccccc1)NC(=O)[C@@H](COCc1ccccc1)NC(=O)C(c1ccccc1)c1ccccc1
result: 5

query: Give inhibition at 10 µM for the following compound: CCNC(=O)OC[C@H](Cc1ccccc1)NC(=O)[C@H]1CCCN1S(=O)(=O)c1ccc(C)cc1
result: 2

query: For CN(C)S(=O)(=O)N[C@H](COCc1ccccc1)C(=O)N[C@H](C=O)Cc1ccccc1 , write its inhibition at 10 µM.
result: 2

* * *

# tested-target: Recombinant human calpain I (Homo sapiens, UniProt P07384)
# Construct: made in house
# Sequence (P07384 whole entry): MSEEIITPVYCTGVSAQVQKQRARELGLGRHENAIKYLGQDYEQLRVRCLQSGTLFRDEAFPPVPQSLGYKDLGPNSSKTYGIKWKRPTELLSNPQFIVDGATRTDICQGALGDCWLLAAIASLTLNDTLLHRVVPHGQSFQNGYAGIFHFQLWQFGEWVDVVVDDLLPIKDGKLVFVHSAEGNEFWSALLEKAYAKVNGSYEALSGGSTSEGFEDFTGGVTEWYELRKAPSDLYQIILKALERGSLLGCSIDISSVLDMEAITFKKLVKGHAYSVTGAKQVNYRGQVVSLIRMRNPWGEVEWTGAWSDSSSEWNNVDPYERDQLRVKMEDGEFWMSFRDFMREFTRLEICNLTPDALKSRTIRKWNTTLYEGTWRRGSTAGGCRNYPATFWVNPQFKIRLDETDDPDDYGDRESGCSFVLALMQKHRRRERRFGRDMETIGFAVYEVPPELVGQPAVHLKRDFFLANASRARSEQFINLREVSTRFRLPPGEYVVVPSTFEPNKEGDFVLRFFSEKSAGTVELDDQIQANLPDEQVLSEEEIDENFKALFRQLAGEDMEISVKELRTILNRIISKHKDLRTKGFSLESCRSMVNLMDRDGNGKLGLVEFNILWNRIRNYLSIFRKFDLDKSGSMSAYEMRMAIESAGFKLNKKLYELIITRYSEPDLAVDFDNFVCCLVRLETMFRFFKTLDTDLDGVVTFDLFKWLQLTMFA
# test-summary: Inhibition of calpain I activity
# Type: biochemical
# cond: Table III
# Experimental: To evaluate inhibitory activity, stock solutions (40 times concentrated) of exemplary compounds of the invention were prepared in 100% anhydrous DMSO and 5 μL of each inhibitor preparation were aliquoted into each of three wells of a 96-well plate. […] Substrate hydrolysis was monitored every 5 minutes for a total of 30 minutes. […] The results were plotted as % inhibition versus log inhibitor concentration and the IC50 was calculated from linear regression of the data. […]
endpoint-label: pIC50
pIC50 here is simply -log10 of the concentration when that concentration is written in mol/L.

query: Let me know recorded pIC50 for CS(=O)(=O)NC(CCSCc1ccccc1)C(=O)N[C@H](C=O)Cc1ccccc1 (single isomer, unassigned) [Compound 108] , thanks.
result: 7.60

query: Please give measured pIC50 of the following entry: CN(C)S(=O)(=O)N[C@H](COCc1ccccc1)C(=O)N[C@H](C=O)Cc1ccccc1
result: 8.05

query: Provide pIC50 value for the following molecule: O=C[C@H](Cc1ccccc1)NC(=O)[C@@H](COCc1ccccc1)NS(=O)(=O)c1ccc(F)cc1
result: 7.62

query: Provide only the value of recorded pIC50 for O=C[C@H](Cc1ccccc1)NC(=O)[C@@H](Cc1ccccc1)NS(=O)(=O)c1ccc2ccccc2c1
result: 7.85

* * *

# tested-target: α-chymotrypsin (Bos taurus)
# Construct: purchased Sigma Chem. Co. C-3142
# test-summary: Inhibition of α-chymotrypsin
# Format: biochemical
# cond: Table III; 10 uM; read-out: Chymotrypsin % I @ 10 uM
Square brackets hold non-standard residues; d marks the D form. Peptide text beside a SMILES is read from it. * marks the point of attachment. d(hPhe) = N[C@H](CCc1ccccc1)C(=O)O; Ms = CS(=O)(=O)*
endpoint-label: inhibition at 10 µM (%)
Unit % implied. Number only.

query: Give the value of inhibition at 10 µM reported for the following: CS(=O)(=O)N1CCC[C@@H]1C(=O)N[C@H](C=O)Cc1ccccc1 [Compound 101] (Ms-[dP]-Phe-aldehyde)
result: 2

query: For the compound CS(=O)(=O)N[C@H](CCc1ccccc1)C(=O)N[C@H](C=O)Cc1ccccc1 [Compound 62] (Ms-[d(hPhe)]-Phe-aldehyde) , give its reported inhibition at 10 µM.
result: 4

query: Give me measured inhibition at 10 µM, please, for this compound: CS(=O)(=O)N[C@H](COCc1ccccc1)C(=O)N[C@@H](Cc1ccccc1)C1OCCS1 (stereo partly shown) [Compound 131]
result: 0

query: Identify the reported inhibition at 10 µM for the following entry. CS(=O)(=O)N[C@H](C(=O)N[C@H](C=O)Cc1ccccc1)c1cccs1 [Compound 97]
result: 25
